Molecular target: human Smo (Homo sapiens (Human), UniProt Q99835)
Sequence (Q99835 181-787): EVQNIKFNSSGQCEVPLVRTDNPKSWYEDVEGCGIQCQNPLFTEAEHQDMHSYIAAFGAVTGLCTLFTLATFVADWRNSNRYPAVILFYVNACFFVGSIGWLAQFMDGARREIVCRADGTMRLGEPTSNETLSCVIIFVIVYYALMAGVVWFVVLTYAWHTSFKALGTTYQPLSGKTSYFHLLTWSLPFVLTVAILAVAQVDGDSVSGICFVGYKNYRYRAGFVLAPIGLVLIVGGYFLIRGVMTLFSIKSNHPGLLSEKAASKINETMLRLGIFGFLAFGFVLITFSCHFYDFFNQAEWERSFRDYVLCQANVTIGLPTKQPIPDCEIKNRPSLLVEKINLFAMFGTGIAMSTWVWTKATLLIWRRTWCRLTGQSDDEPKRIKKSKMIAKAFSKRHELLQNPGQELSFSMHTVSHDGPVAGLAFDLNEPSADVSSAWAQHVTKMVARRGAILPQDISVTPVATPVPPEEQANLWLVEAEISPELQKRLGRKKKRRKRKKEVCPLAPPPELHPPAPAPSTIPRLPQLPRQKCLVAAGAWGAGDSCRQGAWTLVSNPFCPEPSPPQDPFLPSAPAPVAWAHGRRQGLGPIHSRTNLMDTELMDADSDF
Assay: Smo radioligand competition binding assay
Conditions: 0.05 μM test compound; read-out: Smo % inh. @ 0.05 μM
Parameter threshold = 90%. Response is y when inhibition at 0.05 µM meets or exceeds it, else n.

Prompt line: Check this molecule for inhibition at 0.05 µM at or above 90%: COCCC(=O)NC1CCN(c2cc(-c3ncccc3C)c(Cl)cn2)CC1 [Example A-27]
Response line: n

Prompt line: Check this molecule for inhibition at 0.05 µM at or above 90%: Cc1cccnc1-c1cc(N2CCC(C(=O)NC3CCCCC3O)CC2)ncc1Cl (centres unmarked) [Example A-72]
Response line: y

Prompt line: Check this molecule for inhibition at 0.05 µM at or above 90%: Cc1cccnc1-c1cc(N2CCC(NCCS(C)(=O)=O)CC2)ncc1Cl [Example A-49]
Response line: n

Prompt line: Check this molecule for inhibition at 0.05 µM at or above 90%: Cc1cccnc1-c1cc(N2CCC(CNCCS(C)(=O)=O)CC2)ncc1Cl [Example A-96]
Response line: n

Prompt line: Check this molecule for inhibition at 0.05 µM at or above 90%: Cc1cccnc1-c1cc(N2CCC(CNS(C)(=O)=O)CC2)ncc1Cl [Example A-48]
Response line: n

Prompt line: Check this molecule for inhibition at 0.05 µM at or above 90%: Cc1cccnc1-c1cc(N2CCC(C(=O)NCCc3nc4cccnc4n3C)CC2)ncc1Cl [Example A-73]
Response line: n

Prompt line: Check this molecule for inhibition at 0.05 µM at or above 90%: Cc1cccnc1-c1cc(N2CCC(C(=O)N[C@@H]3c4ccccc4C[C@@H]3O)CC2)ncc1Cl [Example A-58]
Response line: n

Prompt line: Check this molecule for inhibition at 0.05 µM at or above 90%: Cc1cccnc1-c1cc(N2CCC(C(=O)Nc3cnn(C)n3)CC2)ncc1Cl [Example A-88]
Response line: n

Prompt line: Check this molecule for inhibition at 0.05 µM at or above 90%: Cc1cccnc1-c1cc(N2CCC(OCC(C)C)CC2)ncc1Cl [Example A-38]
Response line: n

Prompt line: Check this molecule for inhibition at 0.05 µM at or above 90%: Cc1ccc(-c2cc(N3CCC(NS(C)(=O)=O)CC3)ncc2Cl)nc1 [Example A-9]
Response line: n

Prompt line: Check this molecule for inhibition at 0.05 µM at or above 90%: CC(C)(O)CC(=O)NC1CCN(c2ccc(Cl)c(-c3ccccn3)n2)CC1 [Example A-131]
Response line: y

Prompt line: Check this molecule for inhibition at 0.05 µM at or above 90%: O=S(=O)(NC1CCN(c2ccc(Cl)c(-c3ccccn3)n2)CC1)C1CC1 [Example A-133]
Response line: y

Prompt line: Check this molecule for inhibition at 0.05 µM at or above 90%: Cc1cc(F)cnc1-c1nc(N2CCC(NS(C)(=O)=O)CC2)ccc1Cl [Example A-154]
Response line: y

Prompt line: Check this molecule for inhibition at 0.05 µM at or above 90%: Cc1cccnc1-c1cc(N2CCN(S(C)(=O)=O)CC2)ncc1Cl [Example A-22]
Response line: n

Prompt line: Check this molecule for inhibition at 0.05 µM at or above 90%: Cc1cnc(-c2cc(N3CCC(CS(N)(=O)=O)CC3)ncc2Cl)c(C)c1 [Example A-118]
Response line: y

Prompt line: Check this molecule for inhibition at 0.05 µM at or above 90%: Cc1cccnc1-c1cc(N2CCC3(CC2)CNC(=O)O3)ncc1Cl [Example A-21]
Response line: n

Prompt line: Check this molecule for inhibition at 0.05 µM at or above 90%: COCC(=O)NC1CCN(c2cc(-c3ncc(C)cc3C)c(Cl)cn2)CC1 [Example A-135]
Response line: y

Prompt line: Check this molecule for inhibition at 0.05 µM at or above 90%: Cc1cccnc1-c1cc(N2CCN(C(=O)C(C)C)CC2)ncc1Cl [Example A-44]
Response line: n

Prompt line: Check this molecule for inhibition at 0.05 µM at or above 90%: CC(=O)N1CCN(c2cc(-c3ncccc3C)c(Cl)cn2)CC1 [Example A-23]
Response line: n

Prompt line: Check this molecule for inhibition at 0.05 µM at or above 90%: Cc1cccnc1-c1cc(N2CCC3(CC2)CN(C)C(=O)O3)ncc1Cl [Example A-20]
Response line: n

Prompt line: Check this molecule for inhibition at 0.05 µM at or above 90%: Cc1cnc(-c2cc(N3CCC(CS(C)(=O)=O)CC3)ncc2Cl)c(C)c1 [Example A-98]
Response line: y

Prompt line: Check this molecule for inhibition at 0.05 µM at or above 90%: Cc1cc(F)cnc1-c1cc(N2CCN(S(=O)(=O)CCO)CC2)ncc1Cl [Example A-150]
Response line: n

Prompt line: Check this molecule for inhibition at 0.05 µM at or above 90%: Cc1ccc(-c2nc(N3CCC(NS(C)(=O)=O)CC3)ccc2Br)nc1 [Example A-120]
Response line: y

Prompt line: Check this molecule for inhibition at 0.05 µM at or above 90%: Cc1cccnc1-c1cc(N2CCC(C(=O)NCCS(C)(=O)=O)CC2)ncc1Cl [Example A-67]
Response line: n

Prompt line: Check this molecule for inhibition at 0.05 µM at or above 90%: Cc1cccnc1-c1cc(N2CCC(C(=O)N3CCCC[C@H]3CO)CC2)ncc1Cl [Example A-85]
Response line: y

Prompt line: Check this molecule for inhibition at 0.05 µM at or above 90%: Cc1cnc(-c2ccnc(N3CCN(C(=O)CCS(C)(=O)=O)CC3)c2)c(C)c1 [Example A-141]
Response line: y

###

Could you please report measured pIC50 for the items listed next?
Tested on: Gli-Luc/MEF cells
Assay: Gli-Luc/MEF assay
Assay type: cell-based, mouse
Conditions: Mus musculus, MEF; Shh-stimulated luciferase, 48 hours
On this scale, pIC50 is minus log10 of a concentration expressed in M (mol/L).

Form: item Cc1cccnc1-c1cc(N2CCN(c3ccc(C#N)cn3)CC2)ncc1Cl [Example A-19] ; test system Gli-Luc/MEF cells; pIC50: 8.00

Form: item Cc1cnc(-c2cc(N3CCC(NS(=O)(=O)C4CC4)CC3)ncc2Cl)c(C)c1 [Example A-127] ; test system Gli-Luc/MEF cells; pIC50: 8.30

Form: item Cc1cnc(-c2cc(N3CCN(S(C)(=O)=O)CC3)ncc2Cl)c(C)c1 [Example A-104] ; test system Gli-Luc/MEF cells; pIC50: 7.90

Form: item CS(=O)(=O)CC1CCN(c2ncc(Cl)c(-c3ccccn3)n2)CC1 [Example A-92] ; test system Gli-Luc/MEF cells; pIC50: 7.23

Form: item Cc1cccnc1-c1cc(N2CCN(C(=O)C(C)(C)C)CC2)ncc1Cl [Example A-43] ; test system Gli-Luc/MEF cells; pIC50: 7.72

Form: item Cc1cccnc1-c1cc(N2CCC(C(=O)NC3CCOC4(CCN(C)CC4)C3)CC2)ncc1Cl (stereo not shown) [Example A-84] ; test system Gli-Luc/MEF cells; pIC50: 7.04

Form: item Cc1cnc(-c2c(Cl)cnc(N3CCC(NC(=O)CCS(C)(=O)=O)CC3)c2F)c(C)c1 [Example A-139] ; test system Gli-Luc/MEF cells; pIC50: 8.71

###

System: Gli-Luc/MEF cells
Experiment: Gli-Luc/MEF assay
Type: cell-based, mouse
Details: Mus musculus, MEF; Shh-stimulated luciferase, 48 hours
pIC50: −log10 of the molar value.
Parameter threshold = 7. Response is condition met when pIC50 meets or exceeds it, else condition not met.

Prompt line: Check this compound for pIC50 at or above 7: Cc1cc(F)cnc1-c1cc(N2CCC(NS(C)(=O)=O)CC2)ncc1Cl
Response line: condition met

Prompt line: Check this compound for pIC50 at or above 7: Cc1cccnc1-c1cc(N2CCN(C(=O)CO)CC2)ncc1Cl
Response line: condition not met

Prompt line: Check this compound for pIC50 at or above 7: Cc1cccnc1-c1cc(N2CCC(C(=O)Nc3cnn(C)n3)CC2)ncc1Cl
Response line: condition met

Prompt line: Check this compound for pIC50 at or above 7: Cc1cnc(-c2cc(N3CCN(CCS(C)(=O)=O)CC3)ncc2Cl)c(C)c1
Response line: condition met

Prompt line: Check this compound for pIC50 at or above 7: Cc1cccnc1-c1cc(N2CCC(C(=O)NC3(c4ccccn4)CC3)CC2)ncc1Cl
Response line: condition met

Prompt line: Check this compound for pIC50 at or above 7: Cc1cccnc1-c1cc(N2CCN(C(=O)CCS(C)(=O)=O)CC2)ncc1Cl
Response line: condition met

Prompt line: Check this compound for pIC50 at or above 7: Cc1cccnc1-c1cc(N2CCN(S(C)(=O)=O)CC2)ncc1Cl
Response line: condition met

Prompt line: Check this compound for pIC50 at or above 7: COCCS(=O)(=O)N1CCN(c2cc(-c3ncc(C)cc3C)c(Cl)cn2)CC1
Response line: condition met

Prompt line: Check this compound for pIC50 at or above 7: Cc1cccnc1-c1cc(N2CCC(C(=O)NCc3ncc[nH]3)CC2)ncc1Cl
Response line: condition met

Prompt line: Check this compound for pIC50 at or above 7: COC(=O)NC1CCN(c2cc(-c3ncccc3C)c(Cl)cn2)CC1
Response line: condition met

Prompt line: Check this compound for pIC50 at or above 7: CS(=O)(=O)CCC(=O)NC1CCN(c2ccc(Cl)c(-c3ccccn3)n2)CC1
Response line: condition met

Prompt line: Check this compound for pIC50 at or above 7: CC(=O)N1CCN(c2ncc(Cl)c(-c3ncccc3C)n2)CC1
Response line: condition not met
